- ASSAYED SYSTEM: human Retinoid X Receptor beta (RXRb), RXRB (gene 6257)
- TEST SUMMARY: ATG_RXRb_TRANS: Attagene TRANS-FACTORIAL HepG2 Assay for human Retinoid X Receptor beta (RXRb) (AID 2283013)
Results filed as inconclusive are left out. Calls of active or inactive are those of the source. How the source made its calls: active means hit-call score of the fitted dose curve at least 0.9, where 1 is the maximum; inconclusive means response in the unintended direction; inactive means score below 0.9.
Write down the outcome that applies. Available outcomes: active, inactive

Prompt: Write down the call the test reported for this compound. Item: `CCOC(=O)C=Cc1ccccc1`
Response: inactive

Prompt: Consider next the compound `CCC(=O)OCC=Cc1ccccc1` in the same way.
Response: inactive

Prompt: Okay, and `NCCN1CCNCC1` ?
Response: active

Prompt: Subsequent entry: `C=C(C)C(=O)OCCOCCOC(=O)C(=C)C`
Response: inactive

Prompt: Param item: `CCCC[N+](C)(CCCC)CCCC`
Response: inactive

Prompt: Repeat for the following compound: `CCCCCCCCCCO[C@@H]1O[C@H](CO)[C@@H](O)[C@H](O)[C@H]1O`
Response: inactive

Prompt: Also `C1=COCCC1` ?
Response: inactive

Prompt: Another compound to check: `c1ccc2scnc2c1`
Response: inactive
